// provenance: the RNAGym collection of RNA variant scans (doi:10.1073/pnas.2313332121)

B1: TPR t1 (parent)
chain: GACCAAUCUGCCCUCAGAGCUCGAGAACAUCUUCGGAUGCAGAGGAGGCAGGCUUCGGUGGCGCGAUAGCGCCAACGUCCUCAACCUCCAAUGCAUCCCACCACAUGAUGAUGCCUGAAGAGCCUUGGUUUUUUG

- Variants of: B1
- protocol summary: polymerase ribozyme fitness, log enrichment relative to wild type (log ratio); higher = more active; in vitro selection for triplet polymerase activity
recorded metric: polymerase ribozyme fitness (log ratio)
No unit in the answer, please; the number alone is enough.

Problem: If you can, please state the reported polymerase ribozyme fitness (log ratio) value of C72A C85U A90C .
Result: -1.5

Problem: Quick one: polymerase ribozyme fitness (log ratio) of C8A G122A ?
Result: 0.24

Problem: Would you mind telling me what polymerase ribozyme fitness (log ratio) value was observed for C72G C85G ?
Result: -1.98

Problem: Request the reported polymerase ribozyme fitness (log ratio) associated with C8U G61U A66U C123A U133G
Result: 0.747

Problem: Recorded polymerase ribozyme fitness (log ratio) of A29G A37C , please.
Result: -2.19

Problem: Any idea what its polymerase ribozyme fitness (log ratio) is? The variant is U9G A18C C56G C72A G120A U130A
Result: -2.29

Problem: Record request: polymerase ribozyme fitness (log ratio) value, item U59A G93C C114U
Result: -2.6

Problem: Item under review: C3A C79A G120U G128A . Reported polymerase ribozyme fitness (log ratio)?
Result: -3.06

Problem: For C20U C72A A119U , what is its reported polymerase ribozyme fitness (log ratio)?
Result: -1.58

Problem: Dear colleague, I am looking for the recorded polymerase ribozyme fitness (log ratio) of the following variant: U54A C98G U112C
Result: -3.86

Problem: Return reported polymerase ribozyme fitness (log ratio); argument: U112A G120C
Result: -0.182

Problem: # lookup: polymerase ribozyme fitness (log ratio) of G36A G61U U96G
Result: -1.71

Problem: Give the measured polymerase ribozyme fitness (log ratio) of U54G U116A .
Result: -3.36
